Data credit: patent US20070249607A1

molecular target: neurokinin-1 (NK-1) receptor (Homo sapiens); construct: a human glioblastoma-astrocytoma cell line that endogenously expresses the neurokinin-1 (NK-1) receptor; endogenous in cells; host or cells: U373 human glioblastoma-astrocytoma cells (membranes); assay: NK-1 Binding assay ([125I] Substance P competition, U373 cell membranes); settings: Table 2; U373 membranes, [125I] Substance P displacement; read-out: NK-1 IC50
Sequence (P25103 whole entry): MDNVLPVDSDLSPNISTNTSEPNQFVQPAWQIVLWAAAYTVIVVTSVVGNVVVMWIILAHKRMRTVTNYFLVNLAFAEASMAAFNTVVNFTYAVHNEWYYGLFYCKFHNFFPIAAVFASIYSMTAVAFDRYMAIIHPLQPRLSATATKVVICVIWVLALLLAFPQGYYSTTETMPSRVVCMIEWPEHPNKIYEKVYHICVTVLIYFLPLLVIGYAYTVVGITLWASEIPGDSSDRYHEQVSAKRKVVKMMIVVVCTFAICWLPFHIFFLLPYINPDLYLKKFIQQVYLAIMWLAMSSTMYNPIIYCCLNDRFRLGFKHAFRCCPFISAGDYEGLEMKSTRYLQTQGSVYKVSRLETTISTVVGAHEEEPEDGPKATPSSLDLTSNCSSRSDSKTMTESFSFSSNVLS
Recorded measurements of IC50, one per entry

[[record]]
compound = "CC(C)OC(=O)c1cccc(-c2cc(COCC3(c4ccccc4)CCNCC3)cc(C(F)(F)F)c2)c1"
targetundertest = "neurokinin-1 (NK-1) receptor (Homo sapiens)"
result = "> 300 nM"

[[record]]
compound = "CCOc1ccc2cc(-c3cc(COCC4(c5ccccc5)CCNCC4)cc(C(F)(F)F)c3)ccc2c1"
targetundertest = "neurokinin-1 (NK-1) receptor (Homo sapiens)"
result = "100 to 300 nM"

[[record]]
compound = "CN1CCC(COCc2cc(-c3ccc(C#N)cc3)cc(C(F)(F)F)c2)(c2ccncc2)CC1"
targetundertest = "neurokinin-1 (NK-1) receptor (Homo sapiens)"
result = "0.01 to 100 nM"

[[record]]
compound = "CC(=O)Nc1ccc(-c2cc(COCC3(c4ccccc4)CCNCC3)cc(C(F)(F)F)c2)cc1"
targetundertest = "neurokinin-1 (NK-1) receptor (Homo sapiens)"
result = "0.01 to 100 nM"

[[record]]
compound = "CC(OCC1(c2ccccc2)CCNCC1)c1cc(Cl)cc(-c2ccc(C#N)cc2)c1 (stereo not drawn)"
targetundertest = "neurokinin-1 (NK-1) receptor (Homo sapiens)"
result = "0.01 to 100 nM"


Return IC50 measured with neurokinin-1 (NK-1) receptor (Homo sapiens) given this compound: Cc1cc(-c2cc(COCC3(c4cccnc4)CCN(C)CC3)cc(C(F)(F)F)c2)ccc1C#N
0.01 to 100 nM

Return IC50 measured with neurokinin-1 (NK-1) receptor (Homo sapiens) given this compound: CCS(=O)(=O)c1ccc(-c2cc(COCC3(c4ccccc4)CCNCC3)cc(C(F)(F)F)c2)cc1
100 to 300 nM

Return IC50 measured with neurokinin-1 (NK-1) receptor (Homo sapiens) given this compound: COc1ccc(-c2cc(COCC3(c4ccccc4)CCN(C)CC3)cc(C(F)(F)F)c2)cc1C
0.01 to 100 nM

Return IC50 measured with neurokinin-1 (NK-1) receptor (Homo sapiens) given this compound: N#Cc1ccc(-c2cc(COCC3(c4cccc(Br)c4)CCNCC3)cc(C(F)(F)F)c2)cc1
0.01 to 100 nM

----------
Recorded measurements of IC50, one per entry
molecular target: neurokinin-1 (NK-1) receptor (Homo sapiens); construct: a human glioblastoma-astrocytoma cell line that endogenously expresses the neurokinin-1 (NK-1) receptor; endogenous in cells; host or cells: U373 human glioblastoma-astrocytoma cells (membranes); experiment: NK-1 Binding assay ([125I] Substance P competition, U373 cell membranes); conditions: Table 2; U373 membranes, [125I] Substance P displacement; read-out: NK-1 IC50

[[record]]
molecule = "C[C@@H](OCC1(c2ccccc2)CCN(C)CC1)c1cc(-c2ccc(C#N)cc2)cc(C(F)(F)F)c1"
result = "0.01 to 100 nM"

[[record]]
molecule = "CC(OCC1(c2ccccc2)CCNCC1)c1cc(F)cc(-c2ccc(C#N)cc2)c1 (centres unmarked)"
result = "0.01 to 100 nM"

[[record]]
molecule = "Cc1cc(-c2cc(COCC3(c4ccccc4)CCNCC3)cc(C(F)(F)F)c2)cc(C)c1O"
result = "> 300 nM"

[[record]]
molecule = "N#Cc1ccc(-c2cc(COCC3(c4ccccc4)CCNCC3)cc(C(=O)N3CCCCC3)c2)cc1"
result = "> 300 nM"


Please find the next molecule below.
// query IC50 value for entry CC(C)Cc1ccc(-c2cc(COCC3(c4ccccc4)CCNCC3)cc(C(F)(F)F)c2)cc1
> 300 nM
